I'd be grateful if you could share measured Activity for these entries.
- Tested on: HL-60
- Protocol Text: Induction of differentiation of human HL60 cells assessed as morphological changes at 10 uM after 7 days by NBT reduction assay
- Type: functional

Examples with answers:
> print(dat)
                    structure.smiles.string  target.of.assay  quantity  readout.value
1  O=c1c2ccccc2nc(/C=C/c2ccc([N+](=O)[O-])o2)n1-c1ccccc1F            HL-60  Activity       30 - 60%
2  C#Cc1ccc(-n2c(/C=C/c3ccc(O)cc3)nc3ccccc3c2=O)cc1            HL-60  Activity        5 - 30%

Please turn your attention to the following entry.
Problem: Form: Entry = COc1ccccc1-n1c(/C=C/c2ccc(O)c(O)c2)nc2ccccc2c1=O | System = HL-60 | Activity = ____
Solution: 5 - 30%

* * *

- System: HL-60
- Protocol Text: Induction of differentiation of human HL60 cells assessed as morphological changes at 10 uM after 7 days by NBT reduction assay
- Format: functional
Quantity: Activity

Examples with answers:
> print(dat)
                    structure.smiles.string  target.of.assay  quantity  readout.value
1  O=c1[nH]c(/C=C/c2ccc([N+](=O)[O-])o2)nc2ccsc12            HL-60  Activity        5 - 30%
2  O=c1c2sccc2nc(/C=C/c2ccc([N+](=O)[O-])o2)n1-c1ccccc1Cl            HL-60  Activity        5 - 30%
3  Cc1cc(C#Cc2ccc(C(C)(C)C)cc2)ccc1-n1c(/C=C/c2ccc([N+](=O)[O-])o2)nc2ccccc2c1=O            HL-60  Activity        5 - 30%

Batch lookup, Activity per entry.
1. COc1ccccc1-n1c(/C=C/c2ccc([N+](=O)[O-])o2)nc2ccc(F)cc2c1=O
2. O=C(O)c1cccc(-n2c(/C=C/c3ccc([N+](=O)[O-])o3)nc3ccccc3c2=O)c1

Solution:
30 - 60%
5 - 30%
